Reference for the values: patent US9399626B2

- Experimental Target: MPO (purified from human polynuclear leukocytes) (Homo sapiens, UniProt P05164)
- Construct: purified from human polynuclear leukocytes; purchased Calbiochem/EMD Biosciences; host or cells: human polynuclear leukocytes (natural source)
- Sequence (P05164 279-745 limits assumed): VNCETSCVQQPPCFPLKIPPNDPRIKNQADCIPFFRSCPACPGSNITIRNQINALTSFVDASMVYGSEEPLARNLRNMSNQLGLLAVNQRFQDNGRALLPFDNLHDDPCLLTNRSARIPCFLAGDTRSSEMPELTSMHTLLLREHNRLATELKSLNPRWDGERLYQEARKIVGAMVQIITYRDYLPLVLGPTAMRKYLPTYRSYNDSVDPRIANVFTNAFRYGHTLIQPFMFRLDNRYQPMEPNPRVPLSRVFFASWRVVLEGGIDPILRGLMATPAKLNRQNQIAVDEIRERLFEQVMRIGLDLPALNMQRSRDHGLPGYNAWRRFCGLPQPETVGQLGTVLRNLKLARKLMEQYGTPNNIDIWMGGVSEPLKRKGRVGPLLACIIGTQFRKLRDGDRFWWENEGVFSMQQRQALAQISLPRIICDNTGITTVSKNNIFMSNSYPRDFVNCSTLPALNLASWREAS
- Sequence (P05164 165-273 limits assumed): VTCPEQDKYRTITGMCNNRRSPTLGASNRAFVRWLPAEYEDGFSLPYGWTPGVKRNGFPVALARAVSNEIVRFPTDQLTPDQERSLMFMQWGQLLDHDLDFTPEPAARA
- Method Description: MPO Amplex Red Activity Assay
- Assay type: biochemical
- Test Settings: Table 1, 2 μM H2O2, pH 7.4
Structures can show the parent of a compound that is named as a salt.
Measure: MPO kinact/Ki

• CCOc1ccc(-c2cc(=O)[nH]c(=S)n2CCOC)cc1 = 2080 1/s per M
• COCCn1c(-c2ccccc2OC)cc(=O)[nH]c1=S = 7540 1/s per M
• COCCn1c(-c2cc(C(C)C)c(F)cc2OC)cc(=O)[nH]c1=S = 8480 1/s per M
• COCCn1c(-c2ccc(OC)c(OC)c2)cc(=O)[nH]c1=S = 6330 1/s per M
• COCCn1c(-c2cccc3cccnc23)cc(=O)[nH]c1=S = 2800 1/s per M
• O=c1cc(-c2cccc3ccccc23)n(CCO)c(=S)[nH]1 = 8950 1/s per M
• O=c1cc(-c2cccc3c2OCCO3)n(CCO)c(=S)[nH]1 = 2340 1/s per M
• COc1cc(OC)c(-c2cc(=O)[nH]c(=S)n2CCCN)cc1OC [Example 125, hydrochloride] = 10600 1/s per M
• COCCn1c(-c2ccc(C)cc2)cc(=O)[nH]c1=S = 1750 1/s per M
• O=c1cc(-c2csc3ccccc23)n(CCO)c(=S)[nH]1 = 4520 1/s per M
• COc1nc(C)ccc1-c1cc(=O)[nH]c(=S)n1CCO = 4530 1/s per M
• COCCn1c(-c2ccc(S(=O)(=O)N(C)C)cc2)cc(=O)[nH]c1=S = 378 1/s per M
• COc1ccc(Cl)cc1-c1cc(=O)[nH]c(=S)n1C[C@H](O)CN [Example 114, trifluoroacetate] = 9770 1/s per M
• COc1ccc(OC)c(-c2cc(=O)[nH]c(=S)n2CCN)c1 [Example 166, hydrochloride] = 8920 1/s per M
• CCOc1ccccc1-c1cc(=O)[nH]c(=S)n1CC1CCCO1 (stereo not shown) = 4200 1/s per M
• COc1ccc(Cl)cc1-c1cc(=O)[nH]c(=S)n1CCN=C(N)N [Example 128, hydrochloride] = 7680 1/s per M
• COc1ccc(-c2cc(=O)[nH]c(=S)n2CCNS(C)(=O)=O)c(OC)c1 = 3700 1/s per M
• COCCn1c(-c2cncnc2)cc(=O)[nH]c1=S = 430 1/s per M
• COCCn1c(-c2ccc(OC)nc2OC)cc(=O)[nH]c1=S = 3270 1/s per M
